Biological target: BTK (Homo sapiens (Human), UniProt Q06187)
Sequence (Q06187 whole entry, species assumed): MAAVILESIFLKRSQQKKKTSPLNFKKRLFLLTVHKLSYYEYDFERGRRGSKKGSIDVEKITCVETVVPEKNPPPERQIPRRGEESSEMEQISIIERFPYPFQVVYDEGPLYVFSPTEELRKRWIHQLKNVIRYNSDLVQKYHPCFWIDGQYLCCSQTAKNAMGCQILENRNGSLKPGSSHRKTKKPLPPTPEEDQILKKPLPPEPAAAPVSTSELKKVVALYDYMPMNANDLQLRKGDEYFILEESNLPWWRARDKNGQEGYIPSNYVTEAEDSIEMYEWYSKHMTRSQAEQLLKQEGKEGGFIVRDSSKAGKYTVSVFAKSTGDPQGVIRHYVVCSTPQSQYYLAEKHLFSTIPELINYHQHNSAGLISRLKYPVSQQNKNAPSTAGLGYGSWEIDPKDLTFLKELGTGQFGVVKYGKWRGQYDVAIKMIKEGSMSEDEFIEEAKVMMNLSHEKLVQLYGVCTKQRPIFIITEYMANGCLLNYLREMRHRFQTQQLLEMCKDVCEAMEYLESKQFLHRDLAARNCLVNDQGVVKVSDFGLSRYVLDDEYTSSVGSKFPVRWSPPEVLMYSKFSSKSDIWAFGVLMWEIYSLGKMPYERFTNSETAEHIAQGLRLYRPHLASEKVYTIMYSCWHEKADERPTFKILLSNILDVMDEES
Assay: IC50 against BTK
Type: biochemical
measurement_name: IC50

molecule	IC50
C=CC(=O)N1CCN(C(=O)c2cc(Sc3cnc(NC(=O)C4CC4)s3)c(C)cc2C(F)(F)F)CC1 [Compound 68]	≥ 10000 nM
C=CC(=O)N1CCCN(C(=O)c2cc(Sc3cnc(NC(=O)c4cnsc4)s3)c(C)cc2OC)C[C@H]1C [Compound 93]	1000 to 10000 nM
C=CC(=O)N1CCN(C(=O)c2cc(Sc3cnc(NC(=O)c4cnn(C)c4)s3)c(C)cc2OC)C[C@H]1CC [Compound 115]	100 to 1000 nM
C=CC(=O)N1CCCN(C(=O)c2cc(Sc3cnc(NC(=O)C4CC4)s3)c(C)cc2C)CC1 [Compound 74]	100 to 1000 nM
C=CC(=O)N1CCCN(C(=O)c2cc(Sc3cnc(NC(=O)C4CC4)s3)c(C)cc2OC)C[C@H]1C [Compound 44]	100 to 1000 nM

Q. Form field: reported IC50 of C=CC(=O)N1CCN(C(=O)c2cc(Sc3cnc(NC(=O)c4ccccn4)s3)c(C)cc2OC)CC1 [Compound 95]
A. 100 to 1000 nM

Q. Next molecule up: C=CC(=O)N1CC[C@H](N(C)C(=O)c2cc(Sc3cnc(NC(=O)C4CC4)s3)c(C)cc2OC)C1 [Compound 29]
A. 100 to 1000 nM

Q. Now the molecule C=CC(=O)N1CCC2(C1)CN(C(=O)c1cc(Sc3cnc(NC(=O)C4CC4)s3)c(C)cc1OC)C2 [Compound 46]
A. 10 to 100 nM

Q. Cool, now C=CC(=O)N1CCCN(C(=O)c2cc(Sc3cnc(NC(=O)N(C)C)s3)c(C)cc2OC)C[C@H]1C [Compound 110]
A. ≥ 10000 nM

Q. Try C=CC(=O)N1CCN(C(=O)c2cc(Sc3cnc(NC(C)=O)s3)c(C)cc2OC)C(C)(C)C1 [Compound 5] next.
A. 10 to 100 nM

Q. Next record, please: C=CC(=O)N1CC2(CCN(C(=O)c3cc(Sc4cnc(NC(=O)C5CC5)s4)c(C)cc3OC)C2)C1 [Compound 45]
A. 10 to 100 nM

Q. What about C=CC(=O)N1CCCN(C(=O)c2cc(Sc3cnc(NC(=O)C4CCN(C)CC4)s3)c(C)cc2OC)CC1 [Compound 37] ?
A. ≥ 10000 nM

Q. Same for C=CC(=O)N1CCCN(C(=O)c2cc(Sc3cnc(NC(=O)c4ccsc4)s3)c(C)cc2OC)C[C@H]1C(C)C [Compound 149]
A. 10 to 100 nM

Q. Then this molecule: C=CC(=O)N1CCCN(C(=O)c2cc(Sc3cnc(NC(=O)C4CC4)s3)c(C)cc2OC)C[C@H]1CC [Compound 111]
A. 100 to 1000 nM

Q. Another: C=CC(=O)N1CCN(C(=O)c2cc(Sc3cnc(NC(=O)c4cn(C)cn4)s3)c(C)cc2OC)CC1 [Compound 97]
A. 100 to 1000 nM

Hello, the source for this data is patent US11008314B2, in case you need it.
